Where do the numbers come from? From patent US20120277272A1.

study.system: NMDA receptor
Construct: Mean Ki; Mean Maximum effect
measurement.notes: MK801 binding inhibition (NMDA receptor antagonist activity in vitro)
condition.label: Table 3; inhibition of MK801 binding to the NMDA receptor
pKi: −log10 of the molar value. Structures can show the parent of a compound that is named as a salt.
We begin with a simple list: items and their reported pKi.
measurement.name: pKi

> print(dat)
                                   compound   study.system  censoring.sign  test.result
1  CC(C)(c1ccccn1)[C@H](N)c1ccccc1 [Example 2]  NMDA receptor               <         5.10
2  CC(C)(c1ccccn1)C(N)c1cccc(F)c1.O=C(O)/C=C/C(=O)O (racemic) [Example 9]  NMDA receptor               =         5.89
3  N[C@@H](Cc1ccccn1)c1ccccc1 (single isomer, unassigned) [Example 13, dihydrochloride, reference compound]  NMDA receptor               =         5.54
4  CC(C)(c1ccccn1)C(N)c1ccccc1 (racemic) [Example 1]  NMDA receptor               =         5.31
